systemUnderTest: T1, recombinant human MASP1 active protease (amino acids 297-699, C-terminal His Tag) (human, UniProt P48740 297-699)
T1 sequence: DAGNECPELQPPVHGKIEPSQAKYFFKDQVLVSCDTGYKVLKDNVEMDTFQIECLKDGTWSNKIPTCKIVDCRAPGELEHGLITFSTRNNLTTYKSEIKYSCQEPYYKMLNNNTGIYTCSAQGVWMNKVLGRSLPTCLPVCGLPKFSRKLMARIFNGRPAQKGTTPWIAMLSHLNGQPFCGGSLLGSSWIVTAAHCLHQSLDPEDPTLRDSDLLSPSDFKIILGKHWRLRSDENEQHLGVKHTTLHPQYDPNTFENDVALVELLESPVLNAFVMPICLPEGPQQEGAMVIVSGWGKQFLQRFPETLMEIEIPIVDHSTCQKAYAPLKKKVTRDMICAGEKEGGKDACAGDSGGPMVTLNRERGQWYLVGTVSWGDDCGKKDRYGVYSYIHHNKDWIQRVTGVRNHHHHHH
procedureDetails: cell-based or functional assay
Bridge positions count the residues as written; N and C are the ends. Square brackets hold non-standard residues; d marks the D form. Ends that are not written are not given here. tBuAla = CC(C)(C)C[C@H](N)C(=O)O; Pen = CC(C)(S)[C@H](N)C(=O)O; NMeC = CN[C@@H](CS)C(=O)O; Sar = CNCC(=O)O
observable: human MASP1 IC50 (nM)
Please respond with the number in nM and leave the unit unwritten.

Ask: So what does the record say about human MASP1 IC50 for Tranexamic-ICSRSLPPI[NMeC]IPD-NH2 (disulfide 2-10) [Example 364: (Tranexamic)-IC+SRSLPPI-((N-Me)C)+IPD-NH2] ?
Reply: 33

Ask: So what does the record say about human MASP1 IC50 for AICSRSLP[(3S-OH)P]ICIPD-NH2 (disulfide 3-11) [Example 355: AIC+SRSLP-((3S-OH)P)-IC+IPD-NH2] ?
Reply: 29

Ask: So what does the record say about human MASP1 IC50 for [Sar]ICSRSLPPICID-NH2 (disulfide 3-11; N-terminus assumed; SMILES CC[C@H](C)[C@H](NC(=O)CNC)C(=O)N[C@H]1CSSC[C@@H](C(=O)N[C@H](C(=O)N[C@@H](CC(=O)O)C(N)=O)[C@@H](C)CC)NC(=O)[C@H]([C@@H](C)CC)NC(=O)[C@@H]2CCCN2C(=O)[C@@H]2CCCN2C(=O)[C@H](CC(C)C)NC(=O)[C@H](CO)NC(=O)[C@H](CCCNC(=N)N)NC(=O)[C@H](CO)NC1=O) [Example 317: ((N-Me)G)-IC+SRSLPPIC+ID-NH2] ?
Reply: 22

Ask: So what does the record say about human MASP1 IC50 for [Sar]PICSRS[tBuAla]PPI[Pen]IP-NH2 (disulfide 4-12; N-terminus assumed; SMILES CC[C@H](C)[C@H](NC(=O)[C@@H]1CCCN1C(=O)CNC)C(=O)N[C@H]1CSSC(C)(C)[C@@H](C(=O)N[C@H](C(=O)N2CCC[C@H]2C(N)=O)[C@@H](C)CC)NC(=O)[C@H]([C@@H](C)CC)NC(=O)[C@@H]2CCCN2C(=O)[C@@H]2CCCN2C(=O)[C@H](CC(C)(C)C)NC(=O)[C@H](CO)NC(=O)[C@H](CCCNC(=N)N)NC(=O)[C@H](CO)NC1=O) [Example 361: ((N-Me)G)-PIC+SRS-((tBu)A)-PPI-(Pen)+IP-NH2] ?
Reply: 32
